Where do these numbers come from? They come from patent US12139520B2.

# measured on: T1, hAMY3R (human, UniProt P30988)
# T1 sequence 1: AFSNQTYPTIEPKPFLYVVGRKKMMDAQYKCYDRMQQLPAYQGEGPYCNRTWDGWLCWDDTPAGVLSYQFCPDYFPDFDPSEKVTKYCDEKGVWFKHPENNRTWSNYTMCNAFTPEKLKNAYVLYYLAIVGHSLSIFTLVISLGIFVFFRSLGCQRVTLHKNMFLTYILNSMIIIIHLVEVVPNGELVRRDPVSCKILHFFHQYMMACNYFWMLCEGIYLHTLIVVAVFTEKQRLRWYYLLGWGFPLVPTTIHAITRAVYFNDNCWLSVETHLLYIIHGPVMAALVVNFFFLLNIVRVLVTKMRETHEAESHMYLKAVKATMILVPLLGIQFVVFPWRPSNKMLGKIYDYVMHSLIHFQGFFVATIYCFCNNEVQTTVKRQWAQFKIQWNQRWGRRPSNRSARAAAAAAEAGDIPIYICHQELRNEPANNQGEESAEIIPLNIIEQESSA
# T1 sequence 2: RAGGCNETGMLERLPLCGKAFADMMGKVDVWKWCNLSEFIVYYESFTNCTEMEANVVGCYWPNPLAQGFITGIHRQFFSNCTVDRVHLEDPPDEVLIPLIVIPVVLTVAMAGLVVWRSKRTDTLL
# test: cell-based or functional assay
Numbered stars: 1 amine (or outer) side, 2 acyl side, 3 side chain; on linkers, the order of the positions; unused ones are H or OH. Bridge positions count the residues as written; N and C are the ends. Square brackets hold non-standard residues; d marks the D form. Side chains are listed from the residue outwards. Ends that are not written are not given here. * marks the point of attachment. C20 diacid = O=C(O)CCCCCCCCCCCCCCCCCCC(=O)*; γGlu = O=C(O)[C@H](CCC(=O)[*:2])N[*:1]; Hyp = O=C(O)[C@@H]1C[C@@H](O)CN1; Cit = NC(=O)NCCC[C@H](N)C(=O)O; AEEA = NCCOCCOCC(=O)O
Labelling: hAMY3R EC50 (cAMP) reported below 0.1 nM becomes 1 (yes); at or above becomes 0 (no).

Check out these entries, answers already filled in.
Request: Would you kindly verify if hAMY3R EC50 (cAMP) of KCQTATCTVQRLAEQIYQFTDKDKDNVAPPTNVGSNGX (not fully specified; C20DA-yGlu at N-terminal; Hyp at X38) [SEQ ID NO: 72] is strictly less than 0.1 nM?
Response: 1 (yes)

Request: Would you kindly verify if hAMY3R EC50 (cAMP) of KCNTATCTVQRLAEQIYQFTDKDKDNVAPPTNVGSK([AEEA-AEEA-γGlu-C20 diacid])G[Hyp]-NH2 (disulfide 2-7 (inferred); ends not checked) [SEQ ID NO: 6] is strictly less than 0.1 nM?
Response: 1 (yes)

Request: Would you kindly verify if hAMY3R EC50 (cAMP) of {C20 diacid-γGlu}-KCNTATCTVQRLAHQIAQYTDKDKDNVAPPTNVGSNG[Hyp]-NH2 (disulfide 2-7 (inferred); not fully specified; ends not checked) [SEQ ID NO: 71] is strictly less than 0.1 nM?
Response: 1 (yes)

Request: Would you kindly verify if hAMY3R EC50 (cAMP) of GCRTGTCTVQRLAHQIYQFTDKFKDNVAPRSKISPQTF [SEQ ID NO: 239] is strictly less than 0.1 nM?
Response: 0 (no)

Request: Would you kindly verify if hAMY3R EC50 (cAMP) of KCNTATCTVQ[Cit]LAHQIYQFTDKDKDNVAPRTEVGSNGY-NH2 (disulfide 2-7 (inferred); ends not checked) [SEQ ID NO: 272] is strictly less than 0.1 nM?
Response: 1 (yes)

Request: Would you kindly verify if hAMY3R EC50 (cAMP) of GCRTGTCTVQRLAHQIYQFTDKFKDNVAPRSKISPQA[Hyp]-NH2 (disulfide 2-7 (inferred); ends not checked) [SEQ ID NO: 218] is strictly less than 0.1 nM?
Response: 0 (no)

Request: Would you kindly verify if hAMY3R EC50 (cAMP) of GCRFGTCTVQ[Cit]LAHFLYQFTDKDGAIAPRTKIGSQGY-NH2 (disulfide 2-7 (inferred); ends not checked) [SEQ ID NO: 282] is strictly less than 0.1 nM?
Response: 0 (no)

Request: Would you kindly verify if hAMY3R EC50 (cAMP) of GCRFGTCTVQRLAHQLYQFTDKDKDNVAPRSKISPQT[Hyp]-NH2 (disulfide 2-7 (inferred); ends not checked) [SEQ ID NO: 217] is strictly less than 0.1 nM?
Response: 0 (no)

Next up:
Request: Would you kindly verify if hAMY3R EC50 (cAMP) of GCRFGTCTVQRLAHQIYQFTDKDKDNVAPRTKISPNG[Hyp]-NH2 (disulfide 2-7 (inferred); ends not checked) [SEQ ID NO: 113] is strictly less than 0.1 nM?
Response: 1 (yes)
